- TARGET: Falcipain 2 (Plasmodium falciparum)
- Sequence (Q9N6S8 whole entry): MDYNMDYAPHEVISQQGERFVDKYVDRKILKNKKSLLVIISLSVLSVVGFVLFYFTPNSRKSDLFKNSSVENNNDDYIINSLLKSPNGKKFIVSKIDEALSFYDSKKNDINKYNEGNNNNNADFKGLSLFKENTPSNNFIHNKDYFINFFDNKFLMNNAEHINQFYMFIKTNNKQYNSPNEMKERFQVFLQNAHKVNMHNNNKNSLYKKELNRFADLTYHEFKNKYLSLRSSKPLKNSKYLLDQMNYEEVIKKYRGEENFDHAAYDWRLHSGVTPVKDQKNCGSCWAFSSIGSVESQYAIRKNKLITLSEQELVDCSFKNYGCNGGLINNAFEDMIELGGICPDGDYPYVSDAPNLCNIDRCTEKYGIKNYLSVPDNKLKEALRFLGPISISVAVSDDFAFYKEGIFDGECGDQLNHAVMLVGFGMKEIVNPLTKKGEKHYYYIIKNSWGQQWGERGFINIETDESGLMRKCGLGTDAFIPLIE
- METHOD NOTES: Inhibition of Plasmodium falciparum recombinant falcipain 2 expressed in Escherichia coli using Z-Leu-Arg-AMC as substrate incubated for 30 min prior to substrate addition measured for 30 min by fluorometric analysis
// reported IC50 for each item listed
Give the number; µM is assumed, so skip it.

Inquiry: # IC50 lookup, item CC(C)C[C@H](NC(=O)[C@H]1O[C@@H]1C(=O)O)C(=O)NCCCCN=C(N)N
Reply text: 0.02

Inquiry: IC50 for COc1ccc2nc(C)cc(N/N=C/c3ccc(O[C@H]4O[C@@H]5O[C@@]6(C)CC[C@H]7[C@H](C)CC[C@@H]([C@H]4C)[C@@]57OO6)cc3)c2c1 ?
Reply text: 0.29

***
Inquiry: Report IC50 for Cc1cc(N/N=C/c2ccc(O[C@H]3O[C@@H]4O[C@@]5(C)CC[C@H]6[C@H](C)CC[C@@H]([C@H]3C)[C@@]46OO5)cc2)c2ccc(Cl)c(C)c2n1 please.
Reply text: 0.21

Attribution: ChEMBL document CHEMBL3044922
